These entries and their values trace back to patent US11566007B2.

Items are presented alongside their recorded pIC50.
Biological target: KRAS G12S (Homo sapiens (Human), UniProt P01116+P62937, G12S)
Sequence (P01116-2 other isoform, or with tags, fused parts or gaps G12S): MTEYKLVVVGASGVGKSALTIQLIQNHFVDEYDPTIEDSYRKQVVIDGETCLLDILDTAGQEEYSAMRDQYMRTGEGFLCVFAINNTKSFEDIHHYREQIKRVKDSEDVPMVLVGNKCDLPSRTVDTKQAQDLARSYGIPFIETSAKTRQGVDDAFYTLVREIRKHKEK
Sequence (P62937 whole entry): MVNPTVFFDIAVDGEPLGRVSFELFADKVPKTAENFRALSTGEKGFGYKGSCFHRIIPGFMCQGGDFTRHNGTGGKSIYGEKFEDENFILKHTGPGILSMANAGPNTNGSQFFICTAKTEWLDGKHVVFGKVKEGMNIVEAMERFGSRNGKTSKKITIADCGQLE
Experiment: Ras-Raf (BRAF RBD) disruption / FRET / MOA assay, KRAS G12S
Assay type: biochemical
Conditions: Ras-Raf disruption/FRET/MOA assay; class symbols; read-out: KRAS G12S FRET data IC50
pIC50: −log10 of the molar value.
assayMetric: pIC50

[[record]]
compound = "C=CC(=O)Nc1cnc(C(=O)N(C)[C@H](C(=O)N[C@H]2Cc3cccc(c3)-c3ccc4c(c3)c(c(-c3cccnc3[C@H](C)OC)n4CC)CC(C)(C)COC(=O)[C@@H]3CCCN(N3)C2=O)C(C)C)n1C (atropisomer, axis not shown) [Example A524]"
valuereported = "< 5.00"

[[record]]
compound = "C=CC(=O)N(C)[C@H]1CN(C(=O)N(C)[C@H](C(=O)N[C@H]2Cc3nc(cs3)-c3ccc4c(c3)c(c(-c3cccnc3[C@H](C)OC)n4CC)CC(C)(C)COC(=O)[C@@H]3CCCN(N3)C2=O)C(C)C)C[C@@H]1F (atropisomer, axis not shown) [Example A632]"
valuereported = "6.00 to 7.00"

[[record]]
compound = "C=CC(=O)N(C)CCN1CCN(C(=O)N(C)[C@H](C(=O)N[C@H]2Cc3cccc(c3)-c3ccc4c(c3)c(c(-c3cccnc3[C@H](C)OC)n4CC)CC(C)(C)COC(=O)[C@@H]3CCCN(N3)C2=O)C(C)C)C[C@H]1C (atropisomer, axis not shown) [Example A553]"
valuereported = "5.00 to 6.00"

[[record]]
compound = "C=CC(=O)N1CC[C@H](C(=O)N(C)[C@H](C(=O)NC2C[C@H]3CN(CCCO3)c3ccc4c(c3)c(c(-c3cccnc3[C@H](C)OC)n4CC)CC(C)(C)COC(=O)[C@@H]3CCCN(N3)C2=O)C(C)C)C1 (single isomer, unassigned) [Example A405]"
valuereported = "< 5.00"

[[record]]
compound = "C=CC(=O)N1CCO[C@H]2CN(C(=O)N(C)[C@H](C(=O)N[C@H]3Cc4nc(n(C)n4)-c4ccc5c(c4)c(c(-c4cccnc4[C@H](C)OC)n5CC(F)(F)F)CC(C)(C)COC(=O)[C@@H]4CCCN(N4)C3=O)C(C)C)C[C@H]21 (atropisomer, axis not shown) [Example A575]"
valuereported = "6.00 to 7.00"

[[record]]
compound = "C=C(OC)C(=O)N1CC(N(C)C(=O)N(C)[C@H](C(=O)N[C@H]2Cc3nc(cs3)-c3ccc4c(c3)c(c(-c3cccnc3[C@H](C)OC)n4CC)CC(C)(C)COC(=O)[C@@H]3CCCN(N3)C2=O)C(C)C)C1 (atropisomer, axis not shown) [Example A713]"
valuereported = "6.00 to 7.00"

[[record]]
compound = "C=CC(=O)N1CC[C@H](C(=O)N(C)[C@H](C(=O)N[C@H]2Cc3cc(C(F)F)cc(n3)-c3ccc4c(c3)c(c(-c3cccnc3[C@H](C)OC)n4CC)CC(C)(C)COC(=O)[C@@H]3CCCN(N3)C2=O)C(C)C)C1 (atropisomer, axis not shown) [Example A441]"
valuereported = "< 5.00"

[[record]]
compound = "CCn1c(-c2cccnc2[C@H](C)OC)c2c3cc(ccc31)-c1csc(n1)C[C@H](NC(=O)C[C@@H](C)OC1CN(C(=O)C#CC(C)(C)N(C)C)C1)C(=O)N1CCC[C@H](N1)C(=O)OCC(C)(C)C2 (atropisomer, axis not shown) [Example A638]"
valuereported = "5.00 to 6.00"

[[record]]
compound = "CCn1c(-c2cccnc2[C@H](C)OC)c2c3cc(ccc31)-c1csc(n1)C[C@H](NC(=O)CCO[C@H]1CCN(C(=O)C#CC(C)(C)N3CCC3)C1)C(=O)N1CCC[C@H](N1)C(=O)OCC(C)(C)C2 (atropisomer, axis not shown) [Example A381]"
valuereported = "5.00 to 6.00"

[[record]]
compound = "CCn1c(-c2cccnc2[C@H](C)OC)c2c3cc(ccc31)-c1cc(O)cc(c1)C[C@H](NC(=O)[C@H](C(C)C)N(C)C(=O)[C@H]1CCN(C(=O)C#CC3(N(C)C)COC3)C1)C(=O)N1CCC[C@H](N1)C(=O)OCC(C)(C)C2 [Example A337]"
valuereported = "6.00 to 7.00"

[[record]]
compound = "CCn1c(-c2cccnc2[C@H](C)OC)c2c3cc(ccc31)-c1cccc(c1)C[C@H](NC(=O)[C@H](C(C)C)N(C)C(=O)[C@H]1CCN(C(=O)C#CC3(N(C)C)CN(C)C3)C1)C(=O)N1CCC[C@H](N1)C(=O)OCC(C)(C)C2 (atropisomer, axis not shown) [Example A499]"
valuereported = "5.00 to 6.00"

[[record]]
compound = "C=CC(=O)N1CC(OC[C@H](C(=O)N[C@H]2Cc3cc(F)cc(c3)-c3ccc4c(c3)c(c(-c3cccnc3[C@H](C)OC)n4CC(F)(F)F)CC(C)(C)COC(=O)[C@@H]3CCCN(N3)C2=O)C(C)C)C1 (atropisomer, axis not shown) [Example A725]"
valuereported = "5.00 to 6.00"

[[record]]
compound = "C=CC(=O)N1CC[C@H](C(=O)N(C2CC2)[C@H](C(=O)N[C@H]2Cc3cccc(c3)-c3ccc4c(c3)c(c(-c3cccnc3[C@H](C)OC)n4CC)CC(C)(C)COC(=O)[C@@H]3CCCN(N3)C2=O)C(C)C)C1 (atropisomer, axis not shown) [Example A398]"
valuereported = "< 5.00"

[[record]]
compound = "CCn1c(-c2cccnc2[C@H](C)OC)c2c3cc(ccc31)-c1cccc(c1)C[C@H](NC(=O)[C@H](C(C)C)N1CC[C@]3(CCN(C(=O)C#C[C@@H]4COCCN4C)C3)C1=O)C(=O)N1CCC[C@H](N1)C(=O)OCC(C)(C)C2 (atropisomer, axis not shown) [Example A569]"
valuereported = "5.00 to 6.00"

[[record]]
compound = "C=CS(=O)(=O)N1CCC(C(=O)N(C)[C@H](C(=O)N[C@H]2Cc3nc(cs3)-c3ccc4c(c3)c(c(-c3cncnc3)n4CC)CC(C)(C)COC(=O)[C@@H]3CCCN(N3)C2=O)C(C)C)C1 (single isomer, unassigned) [Example A170]"
valuereported = "< 5.00"


###

The following molecules are listed with their measured pIC50 values.
Biological target: KRAS G13D (Homo sapiens (Human), UniProt P01116+P62937, G13D)
Sequence (P01116-2 other isoform, or with tags, fused parts or gaps G13D): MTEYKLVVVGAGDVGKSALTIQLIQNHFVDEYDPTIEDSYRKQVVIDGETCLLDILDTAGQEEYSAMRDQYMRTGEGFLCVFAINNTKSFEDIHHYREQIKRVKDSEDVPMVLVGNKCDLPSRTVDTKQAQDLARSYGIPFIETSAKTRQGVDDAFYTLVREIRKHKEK
Sequence (P62937 whole entry): as the sequence (P62937 whole entry) above
Assay: Ras-Raf (BRAF RBD) disruption / FRET / MOA assay, KRAS G13D
Assay type: biochemical
Details: read-out: IC50* KRAS G13D FRET data
pIC50: −log10 of the molar value.
assayMetric: pIC50

[[record]]
molecule = "C=CC(=O)N1CC[C@]2(COCCN2C(=O)N(C)[C@H](C(=O)N[C@H]2Cc3nc(cs3)-c3ccc4c(c3)c(c(-c3cccnc3[C@H](C)OC)n4CC)CC(C)(C)COC(=O)[C@@H]3CCCN(N3)C2=O)C(C)C)C1 (atropisomer, axis not shown)"
testedon = "KRAS G13D (Homo sapiens (Human), UniProt P01116+P62937, G13D)"
valuereported = "5.00 to 6.00"

[[record]]
molecule = "C=CC(=O)N1CCOC2(CCN(C(=O)N(C)[C@H](C(=O)N[C@H]3C[C@H]4CN(CCO4)c4ccc5c(c4)c(c(-c4cccnc4[C@H](C)OC)n5CC)CC(C)(C)COC(=O)[C@@H]4CCCN(N4)C3=O)C(C)C)CC2)C1"
testedon = "KRAS G13D (Homo sapiens (Human), UniProt P01116+P62937, G13D)"
valuereported = "5.00 to 6.00"

[[record]]
molecule = "CC#CC(=O)N1CC[C@]2(CCN([C@H](C(=O)N[C@H]3Cc4cccc(c4)-c4ccc5c(c4)c(c(-c4cccnc4[C@H](C)OC)n5CC)CC(C)(C)COC(=O)[C@@H]4CCCN(N4)C3=O)C(C)C)C2=O)C1 (atropisomer, axis not shown)"
testedon = "KRAS G13D (Homo sapiens (Human), UniProt P01116+P62937, G13D)"
valuereported = "5.00 to 6.00"

[[record]]
molecule = "CCn1c(-c2cccnc2[C@H](C)OC)c2c3cc(ccc31)-c1cc(O)cc(c1)C[C@H](NC(=O)[C@H](C(C)C)N1CC[C@]3(CCN(C(=O)/C=C/CN(C)C)C3)C1=O)C(=O)N1CCC[C@H](N1)C(=O)OCC(C)(C)C2 (atropisomer, axis not shown)"
testedon = "KRAS G13D (Homo sapiens (Human), UniProt P01116+P62937, G13D)"
valuereported = "7.00 to 8.00"


###

Target: KRAS G13D (Homo sapiens (Human), UniProt P01116+P62937, G13D)
Assay: Ras-Raf (BRAF RBD) disruption / FRET / MOA assay, KRAS G13D
Type: biochemical
Details: read-out: IC50* KRAS G13D FRET data
pIC50: −log10 of the molar value.
assayMetric: pIC50

[[record]]
molecule = "CCn1c(-c2cccnc2COC)c2c3cc(ccc31)-c1cc(O)cc(c1)C[C@H](NC(=O)[C@H](C(C)C)N(C)C(=O)[C@H]1CCN(C(=O)C#CCN3[C@H](C)COC[C@@H]3C)C1)C(=O)N1CCC[C@H](N1)C(=O)OCC(C)(C)C2"
assaymetric = "pIC50"
valuereported = "5.00 to 6.00"

[[record]]
molecule = "CCn1c(-c2cccnc2[C@H](C)OC)c2c3cc(ccc31)-c1cccc(c1)C[C@H](NC(=O)[C@H](C(C)C)N1CO[C@@]3(CCN(C(=O)C#CC(C)(C)N4CCC4)C3)C1=O)C(=O)N1CCC[C@H](N1)C(=O)OCC(C)(C)C2 (atropisomer, axis not shown)"
assaymetric = "pIC50"
valuereported = "< 5.00"

